Test system: NCI-H2122
Test: COMPOUND A In Vitro Assay
Format: cell-based, human
Conditions: Homo sapiens, NCI-H2122, NCI-H2122; Lung; TP53 Mutant
ENDPOINT: pIC50
Note on units: pIC50 is unitless, being -log10 of a concentration expressed in mol/L.

[Q] Which measured pIC50 value corresponds to `CCOc1cc(C(C)(C)C)ccc1C1=N[C@@](C)(c2ccc(Cl)cc2)[C@@](C)(c2ccc(Cl)cc2)N1C(=O)N1CCN(CCCS(C)(=O)=O)CC1` ?
[A] 6.80

====

Test system: LS1034
Assay: COMPOUND A In Vitro Assay
Format: cell-based
Settings: Homo sapiens, LS-1034, Intestine, large, caecum, TP53 Mutant
ENDPOINT: IC50 (µM)
Your answer is read as µM, so omit the unit and give the number.

[Q] Suppose we examine the molecule CCOc1cc(C(C)(C)C)ccc1C1=N[C@@](C)(c2ccc(Cl)cc2)[C@@](C)(c2ccc(Cl)cc2)N1C(=O)N1CCN(CCCS(C)(=O)=O)CC1 [COMPOUND A] ; what IC50 value has been reported?
[A] 5.7
